Measured values drawn from ChEMBL document CHEMBL3507680 for this set.

# Assay text: Human HepG2 cell viability assay in 384 well format
# Assay type: toxicity, cell-based
# Set-up: dose 125 nL, time 70.5 hour; concentration not given beside the values
# Conditions used: HepG2 cells, read-out: Inhibition
Readout: cytotoxicity at 70.5 h (%)
Give bare numbers, in %.

INSERT INTO results (compound, readout, unit, recorded_value) VALUES
  ('CCOC(C)c1noc(CN2CCCN(c3ccccn3)CC2)n1 (configuration not stated)', 'cytotoxicity at 70.5 h', '%', -12.6);

Each of the following entries comes with a recorded value; kindly state cytotoxicity at 70.5 h for each.
1. O=C1CO[C@H]2CCN(C(=O)c3ccc4c(c3)CCCC4)CC[C@@H]2N1
2. O=C(O)c1cnc(OCC2CC2)c(Br)c1

Solution:
-8.53
-4.12

Each of the following entries comes with a recorded value; kindly state cytotoxicity at 70.5 h for each.
1. C[C@@H]1CN(C(=O)CCc2cnn(C)c2)CC[C@@]1(O)C1CCOCC1
2. CO[C@H]1CN(Cc2ccccc2F)C[C@@]12CCCO2
3. CN1CCC(c2cccc(NCc3nccn3C)n2)CC1
4. CC(C)c1cc(NC(=O)c2ccc(C(=O)NC(C)(C)C)cc2)[nH]n1
5. Cn1c2c(ccc1=O)CCN(Cc1ccoc1)CC2
6. O=C(CCNC(=O)c1cccc(OC(F)F)c1)Nc1cccnc1
7. Cc1nn(C)c(C)c1C(C)NCc1ccc(OC(C)C)cc1 (configuration not stated)

Solution:
8.15
-5.8
22.4
-4.05
4.43
-3.8
-1.94

Each of the following entries comes with a recorded value; kindly state cytotoxicity at 70.5 h for each.
1. CN1CCN(c2cc(NC(=O)c3cnccn3)ncn2)CC1
2. COc1ccc(CNC2CCC(O)CC2)cc1OCCCC#N (configuration not stated)

Solution:
0.507
-5.82

###

I'd appreciate it if you could supply cytotoxicity at 70.5 h values for the items below.
# Assay text: Human HepG2 cell viability assay in 384 well format
# Assay type: toxicity, cell-based
# Set-up: dose 125 nL, time 70.5 hour; concentration not given beside the values
# Conditions used: HepG2 cells, read-out: Inhibition
Give bare numbers, in %.

Solved entries (count: 2):
INSERT INTO results (molecule, recorded_value) VALUES
  ('Cc1ccc(N2CC[C@@H]3[C@@H]2CCN3Cc2ccsc2)nn1', -0.146),
  ('Cc1nnc([C@]23COC[C@H]2CN(Cc2nccs2)C3)o1', -10.3);

Each of the following entries comes with a recorded value; kindly state cytotoxicity at 70.5 h for each.
1. CC(C)Cn1cnnc1C1CCCN1C(=O)c1cc2ccccn2c1 (stereo not drawn)
2. Cc1ccc(CN(C)C(=O)c2cc(Cn3ccnc3C(C)C)[nH]n2)o1

Solution:
1: 14.5; 2: 3.51

Each of the following entries comes with a recorded value; kindly state cytotoxicity at 70.5 h for each.
1. Cc1noc(C)c1-c1nc(N(C)C)ncc1-c1cnccn1
2. CN(C)CCNC(=O)CCC1CCN(C(=O)c2ccc(O)cn2)CC1
3. NCCn1nc(C2CCN(C(=O)CC3CCCCC3)C2)c2nccnc21 (stereo not drawn)

Solution:
[-5.02, -6.92, -7.33]

Each of the following entries comes with a recorded value; kindly state cytotoxicity at 70.5 h for each.
1. O=C(NCC1CC1)[C@H]1C[C@H]2OCC[C@H]2N(Cc2ccoc2)C1
2. CC(C)(C)c1n[nH]c(C2CN(C(=O)CCCn3cccn3)CCO2)n1 (stereo not drawn)

Solution:
[22.9, 0.387]

Each of the following entries comes with a recorded value; kindly state cytotoxicity at 70.5 h for each.
1. O=C(c1cccnc1)N1CC(S(=O)(=O)c2ccc(Cl)cc2)C1
2. CCc1nnc(CNC2CCc3nc(C(C)C)nn3C2)o1 (stereo not drawn)
3. O=C([C@H]1C[C@H]2OCC[C@H]2N(CC2CCOCC2)C1)N1CCCCO1

Solution:
[-10.4, 0.155, -7.91]
